Values compiled from the Deep4Chem optical property database.

method: solvent given as SMILES
condition description: in ClC(Cl)Cl
observation type: emission maximum (nm)

>  <line notation>
N#CC(C#N)=Cc1ccc(-c2ccc(N(c3ccccc3)c3ccccc3)cc2)s1

>  <recorded number>
634

$$$$
>  <line notation>
Nc1ncnc2c1c(C#Cc1ccc3ccccc3c1)cn2[C@H]1C[C@H](O)[C@@H](CO)O1

>  <recorded number>
374

$$$$
>  <line notation>
CC1(C)CC(/N=C/c2ccc3ccc4cccc5ccc2c3c45)CC(C)(C)N1[O]

>  <recorded number>
375

$$$$
>  <line notation>
CC1=[N+]2C(=C(c3c4ccccc4cc4ccccc34)c3ccc(C)n3[B-]2(F)F)C=C1

>  <recorded number>
526

$$$$
>  <line notation>
N#Cc1nc(N(Cc2ccccc2F)Cc2ccccc2F)c(C#N)nc1N(Cc1ccccc1F)Cc1ccccc1F

>  <recorded number>
570

$$$$
>  <line notation>
CCN(CC)c1ccc2cc(-c3ccc(-c4ccc5c6ccccc6c6c7cc(-c8ccc(-c9cc%10ccc(N(CC)CC)cc%10oc9=O)cc8)ccc7c7ccccc7c6c5c4)cc3)c(=O)oc2c1

>  <recorded number>
482

$$$$
>  <line notation>
CN(C)c1ccc(/C=C/c2cc(/C=C/c3ccc(N(C)C)cc3)nc(N)n2)cc1

>  <recorded number>
511

$$$$
>  <line notation>
O=C1c2cccc3c(-n4c5ccccc5c5ccccc54)ccc(c23)C(=O)N1c1ccccc1

>  <recorded number>
495

$$$$

---

method: solvent given as SMILES
condition description: in CCCCCC

>  <molecule>
CC1(C)CCc2c(c3ccccc3c3nc4c(nc23)c2c(c3ccccc34)OC(C)(C)CC2)O1

>  <unit name>
nm

>  <emission maximum>
434.22

$$$$
>  <molecule>
COc1c2ccccc2c(-c2ccccc2)c2ccccc12

>  <unit name>
nm

>  <emission maximum>
420

$$$$
>  <molecule>
CCC1(CC)c2cc(B(c3c(C)cc(C)cc3C)c3c(C)cc(C)cc3C)ccc2-c2ccc(N(c3ccccc3)c3ccc4c(c3)C(CC)(CC)c3cc(B(c5c(C)cc(C)cc5C)c5c(C)cc(C)cc5C)ccc3-4)cc21

>  <unit name>
nm

>  <emission maximum>
445

$$$$
>  <molecule>
Cc1ccc(-c2ccc(/C=C/c3cccn3C)cn2)nc1

>  <unit name>
nm

>  <emission maximum>
436

$$$$
>  <molecule>
F[B-]1(F)n2c(Cl)ccc2C(c2c(Cl)cccc2Cl)=C2C=CC(NCc3ccccc3)=[N+]21

>  <unit name>
nm

>  <emission maximum>
538

$$$$
>  <molecule>
CCc1c(C)c2n(c1C)[B-](F)(F)[N+]1=C(c3ccc[nH]3)c3ccccc3C1=C2

>  <unit name>
nm

>  <emission maximum>
626

$$$$
>  <molecule>
CC(C)(C)c1ccc2c(c1)c1cc(C(C)(C)C)ccc1n2-c1ccc(-n2c3ccc(C(C)(C)C)cc3c3cc(C(C)(C)C)ccc32)c(C(=O)c2ccncc2)c1

>  <unit name>
nm

>  <emission maximum>
476.84

$$$$
>  <molecule>
O=Cc1ccc(-c2ccc(C3=CCC(c4ccccc4)CC3)s2)s1 (stereo not drawn)

>  <unit name>
nm

>  <emission maximum>
443

$$$$

---

method: solvent given as SMILES
condition description: in CC#N
Measured emission maximum by item
observation type: emission maximum (nm)

>  <line notation>
CCOC(=O)CC[N+]1=c2cc3c(cc2CCC1)=Cc1c(c2cc4c5c(c2oc1=O)CCCN5CCC4)O3

>  <recorded number>
687

$$$$
>  <line notation>
Cc1cccc2cc3c(=O)n(C)c(=O)n(C)c3nc12

>  <recorded number>
417

$$$$
>  <line notation>
COc1ccc2c(c1)-c1ccccc1C2=O

>  <recorded number>
510

$$$$
>  <line notation>
CCN(CC)c1ccc2cc(-c3cc(SC)c(C#N)c(=O)o3)c(=O)oc2c1

>  <recorded number>
578

$$$$
>  <line notation>
Cc1ccc(C2=C3C=C(I)C=[N+]3[B-](F)(F)n3c2cc(I)c3I)cc1

>  <recorded number>
578

$$$$

---

method: solvent given as SMILES
condition description: in ClCCl
Note to self: values exactly at 500 nm are y. So emission maximum at or above 500 nm is y, below is n.

>  <line notation>
C=CCNc1ccc2ccc3oc4cc(=[N+](C)C)ccc-4nc3c2c1

>  <cat>
y

$$$$
>  <line notation>
CCCCNC(=O)c1nc2c(N(C)C)nc(N(C)C)nc2n1Cc1ccccc1

>  <cat>
n

$$$$
>  <line notation>
Cc1cc2c3ccccc3oc2c2[nH]c3ccccc3c12

>  <cat>
n

$$$$
>  <line notation>
Cc1cccc(C)c1N1C(c2ccccc2)=Cc2ccc3ccccc3[n+]2[B-]1(F)F

>  <cat>
n

$$$$
>  <line notation>
CCc1c(C)c2n(c1C)[B-](F)(F)[N+]1=C(c3ccc[nH]3)c3ccccc3C1=C2

>  <cat>
y

$$$$
>  <line notation>
CCCCCCOc1ccc(N(c2ccc(OCCCCCC)cc2)c2ccc(-c3sc(-c4ccc(N(c5ccc(OCCCCCC)cc5)c5ccc(OCCCCCC)cc5)cc4)c4nc(-c5ccc(OC)cc5)c(-c5ccc(OC)cc5)nc34)cc2)cc1

>  <cat>
y

$$$$
>  <line notation>
COc1ccc(/C=C/C2=CC(/C=C/c3ccc(OC)cc3)=[O+][B-](OC(C)=O)(OC(C)=O)O2)cc1

>  <cat>
y

$$$$

---

method: solvent given as SMILES
condition description: in O

>  <line notation>
COc1ccc(/C=C/C2=NC(=C\c3ccncc3)/C(=O)N2C)cc1

>  <emission maximum (nm)>
577

$$$$
>  <line notation>
CN1/C(=C/C=C(/C=C/c2sc3ccccc3[n+]2C)c2cc(F)cc(F)c2)Sc2ccccc21

>  <emission maximum (nm)>
671

$$$$
>  <line notation>
CCn1c(-c2ccc(-c3ccc(-c4ccc(-c5n(CC)c6ccccc6[n+]5CC)cc4)c(C)c3)cc2)[n+](CC)c2ccccc21

>  <emission maximum (nm)>
400

$$$$
>  <line notation>
Nc1ccc2ccc([O-])cc2c1

>  <emission maximum (nm)>
407

$$$$
>  <line notation>
CC/[NH+]=c1\cc2oc3cc(NCCN)c4ccccc4c3nc-2cc1C

>  <emission maximum (nm)>
647

$$$$

---

method: solvent given as SMILES
condition description: in CCCCOCCCC

>  <molecule>
CN(C)c1ccc(C=C/C=C/C=C/c2ccc(C#N)cc2)cc1

>  <emission maximum, nm>
541

$$$$
>  <molecule>
COc1ccc(/C=C/c2ccccc2)cc1

>  <emission maximum, nm>
367

$$$$
>  <molecule>
c1ccc(Nc2nc(Nc3ccccc3)nc(Nc3ccc4ccc5cccc6ccc3c4c56)n2)cc1

>  <emission maximum, nm>
394

$$$$
>  <molecule>
c1ccc(Nc2nc(Nc3ccccc3)nc(Nc3ccc4c5cccc6cccc(c7cccc3c74)c65)n2)cc1

>  <emission maximum, nm>
486

$$$$
>  <molecule>
CCCCCCCCCCCCCCCCOc1cc(C#Cc2ccc3ccccc3c2)c(OCCCCCCCCCCCCCCCC)cc1C#Cc1ccc(C=C(C#N)C#N)cc1

>  <emission maximum, nm>
524

$$$$
>  <molecule>
CN(C)c1ccc(/C=C/c2ccc(C#N)cc2)cc1

>  <emission maximum, nm>
453

$$$$
>  <molecule>
CCCCC(CC)Cn1c2cc(C#N)ccc2c2cc(-c3ccc(N(c4ccccc4)c4ccccc4)cc3)c(C#N)cc21 (centres undefined)

>  <emission maximum, nm>
464

$$$$
>  <molecule>
CC(=O)Nc1ccc2c3c(cccc13)C(=O)c1ccccc1-2

>  <emission maximum, nm>
507.1

$$$$
>  <molecule>
CCCCC(CC)Cn1c2cc(C#N)c(-c3ccc(N(c4ccccc4)c4ccccc4)cc3)cc2c2cc(-c3ccc(N(c4ccccc4)c4ccccc4)cc3)c(C#N)cc21 (centres undefined)

>  <emission maximum, nm>
464

$$$$

---

method: solvent given as SMILES
condition description: in CO
Note to self: values exactly at 500 nm are rule met. So emission maximum at or above 500 nm is rule met, below is rule not met.

>  <compound>
COCCOc1ccc(OCCOC)c(C=O)c1

>  <cat>
rule not met

$$$$
>  <compound>
CCC1=C(C)C2=C(C)c3c(C)c(CC)c(C)n3[B-](F)(F)[N+]2=C1C

>  <cat>
rule met

$$$$
>  <compound>
COc1ccc(OC)c(C(C)=O)c1

>  <cat>
rule not met

$$$$
>  <compound>
CCC1=C(C)C(=O)n2c1cc1c(C)c(CCC(=O)O)c(C)n1c2=O

>  <cat>
rule met

$$$$
>  <compound>
CCC1(CC)c2cc(-c3ccc4c(c3)C(CC)(CC)c3cc(C(C)(C)C)ccc3-4)ccc2-c2ccc(-c3ccc4c(c3)C(CC)(CC)c3cc(C(C)(C)C)ccc3-4)cc21

>  <cat>
rule not met

$$$$
>  <compound>
F[B-]1(F)n2c(Cl)ccc2C(c2c(Cl)cccc2Cl)=C2C=CC(NCc3ccccc3)=[N+]21

>  <cat>
rule met

$$$$
>  <compound>
CC[n+]1c(C=C2C(=O)C(C=C3Sc4cc(Cl)ccc4N3C)=C2[O-])[se]c2ccccc21

>  <cat>
rule met

$$$$
>  <compound>
COc1ccc(/C=C/c2ccc(-c3nnc(-c4ccc(-c5cc6ccccc6s5)cc4)o3)cc2)cc1

>  <cat>
rule not met

$$$$
>  <compound>
COc1ccc2[nH]cc(/C=C/C3=[NH+]c4cccc5cccc3c45)c2c1

>  <cat>
rule met

$$$$
>  <compound>
CN(C)c1ccc(/C=C/c2cc[n+](C)cc2)cc1

>  <cat>
rule met

$$$$
>  <compound>
CN1/C(=C/C=C(/C=C/c2sc3ccccc3[n+]2C)c2cc(F)cc(F)c2)Sc2ccccc21

>  <cat>
rule met

$$$$
>  <compound>
COC(=O)c1ccc(C#Cc2ccc(N(C)C)cc2)cc1

>  <cat>
rule not met

$$$$
>  <compound>
O=P1(c2ccccc2)C(c2cc(C(F)(F)F)cc(C(F)(F)F)c2)=Cc2c3ccc4cccc5ccc(c6cc(-c7ccc(N(c8ccccc8)c8ccccc8)cc7)n1c26)c3c45 (stereo not drawn)

>  <cat>
rule met

$$$$
>  <compound>
O=c1oc2ccc3ccccc3c2nc1-c1ccccc1

>  <cat>
rule not met

$$$$
>  <compound>
CN(C)c1ccc(-c2cc3c(ccc4c([N+](=O)[O-])cccc43)c(=O)o2)cc1

>  <cat>
rule met

$$$$
>  <compound>
COc1ccc(C2CC(c3ccc(O)cc3)=NN2c2ccc(S(N)(=O)=O)cc2)cc1 (stereo not drawn)

>  <cat>
rule not met

$$$$
>  <compound>
CN1/C(=C/C=C(/C=C/C2=[N+](C)c3ccccc3C2(C)C)c2ccc(C(F)(F)F)cc2)C(C)(C)c2ccccc21

>  <cat>
rule met

$$$$
>  <compound>
CCN(CC)c1ccc2cc(-c3cc(SC)c(C#N)c(=O)o3)c(=O)oc2c1

>  <cat>
rule met

$$$$
